- assayed target: CAIX-expressing human HT-29 colorectal cancer cells (Homo sapiens, UniProt Q16790)
- Construct: CAIX-expressing human HT-29 colorectal cancer cells; host or cells: HT-29 human colorectal cancer cells
- procedure summary: FACS binding assay (IC50 determination, competition with tracer 3BP-2776 or 3BP-4149)
- assay context: FACS competition on HT-29 cells, Tracer ID 3BP-2776 (10 nM, biotin-labeled), 4° C., 1 hour; read-out: pIC50 category (activity) (converted)
Starred links: 1 amine or outer side, 2 acyl side, 3 side chain; linkers in the order of their positions; H or OH if unused. Positions of bridges follow the written chain, without caps; N, C: chain ends. Non-standard residues stand in square brackets, D forms with d. Residues, ends and D or L forms follow the SMILES beside them. *: point of attachment. mXylylene = c1cc(C[*:1])cc(C[*:2])c1; Isovaleryl = CC(C)CC(=O)*
measure: IC50

Qu. Param readout = IC50; param system = CAIX-expressing human HT-29 colorectal cancer cells (Homo sapiens, UniProt Q16790); param query = CC(C)CC(=O)N[C@H](C(=O)N[C@@H](Cc1ccc(O)cc1)C(=O)N[C@H]1CSCc2cccc(c2)CSC[C@@H](C(N)=O)NC(=O)[C@H](CCC(N)=O)NC(=O)[C@H](Cc2c[nH]c3ccccc23)NC(=O)[C@H]([C@@H](C)O)NC(=O)[C@H](CC(C)C)NC(=O)[C@H](Cc2c[nH]c3ccccc23)NC(=O)[C@H](CC(=O)O)NC(=O)CNC(=O)[C@H](CCC(=O)O)NC1=O)C(C)C [3BP-3111] (Isovaleryl-VYCEGDWLTWQC-NH2; linker 3-12 via mXylylene) ; response: value
Ans. < 10 nM

Qu. Test system CAIX-expressing human HT-29 colorectal cancer cells (Homo sapiens, UniProt Q16790); read-out IC50; what value for CC(C)CC(=O)N[C@@H](CCC(=O)O)C(=O)N[C@H]1CSCc2cccc(c2)CSC[C@@H](C(N)=O)NC(=O)[C@H](CO)NC(=O)[C@H](Cc2c[nH]c3ccccc23)NC(=O)[C@H]([C@@H](C)O)NC(=O)[C@H](CC(C)C)NC(=O)[C@H](Cc2c[nH]c3ccccc23)NC(=O)[C@H](CC(=O)O)NC(=O)[C@H]2CCCN2C(=O)[C@H](CCC(=O)O)NC1=O [3BP-3728] (Isovaleryl-ECE[dP]DWLTWSC-NH2; linker 2-11 via mXylylene) ?
Ans. < 10 nM

* * *

- procedure summary: In vivo efficacy, biodistribution and tolerability of 225Ac-DPI-4452 in HT-29 xenograft mouse model
- Set-up: species or system NMRI nude mice
- assay context: female, NMRI nude, mouse, HT-29 tumor, iv, total radioactivity; HT-29 model, 15 kBq, 4 hours after dosing, ex vivo gamma counter; read-out: tumor uptake
measure: tissue uptake at 4 h (%ID/g)
// note: answer is a bare numeric in %ID/g

Qu. # input compound: CC(C)C[C@@H]1NC(=O)[C@H](Cc2cccc(NC(=O)CCCS(N)(=O)=O)c2)NC(=O)[C@H](CC(=O)O)NC(=O)[C@H]2CCCN2C(=O)[C@H](CCC(=O)O)NC(=O)[C@@H](NC(=O)[C@H](CCC(N)=O)NC(=O)CN2CCN(C(=O)CN3CCN(CC(=O)O)CCN(CC(=O)O)CCN(CC(=O)O)CC3)CC2)CSCc2cccc(c2)CSC[C@@H](C(N)=O)NC(=O)[C@H](CO)NC(=O)[C@H](Cc2c[nH]c3ccccc23)NC(=O)[C@H]([C@@H](C)O)NC1=O [^225Ac-DPI-4452, metal not drawn] ; wanted: its tissue uptake at 4 h
Ans. 11.3

* * *

- procedure summary: Biodistribution study (SPECT/CT) in SK-RC-52 tumor-bearing mice with or without gelofusine
- Format: in vivo, NMRI nude mice
- assay context: female, NMRI nude, mouse, in vivo, iv, total radioactivity, SK-RC-52 model, without gelofusine, 24 hours post injection; read-out: kidney uptake
measure: tissue uptake at 24 h (%ID/g)
Lab book: enter the figure in %ID/g, no units written.

Qu. Quick one: tissue uptake at 24 h for CC(C)C[C@@H]1NC(=O)[C@H](Cc2cccc(NC(=O)CCCS(N)(=O)=O)c2)NC(=O)[C@H](CC(=O)O)NC(=O)[C@H]2CCCN2C(=O)[C@H](CCC(=O)O)NC(=O)[C@@H](NC(=O)[C@H](CCC(N)=O)NC(=O)CN2CCN(C(=O)CN3CCN(CC(=O)O)CCN(CC(=O)O)CCN(CC(=O)O)CC3)CC2)CSCc2cccc(c2)CSC[C@@H](C(N)=O)NC(=O)[C@H](CO)NC(=O)[C@H](Cc2c[nH]c3ccccc23)NC(=O)[C@H]([C@@H](C)O)NC1=O [[^111In]In-DPI-4452, metal not drawn] ?
Ans. 0.95

* * *

- procedure summary: Extended single-dose toxicity study including safety pharmacology endpoints, i.v. bolus (GLP)
- Assay type: in vivo, beagle dogs
- assay context: both sexes, dog, in vivo, iv; beagle dogs, single i.v. bolus
- Protocol: The following parameters and endpoints were evaluated: mortality, clinical observations, body weights, food consumption, body temperature, local reactions, ophthalmology, clinical pathology parameters (hematology, coagulation, clinical chemistry, and urinalysis), cardiovascular and respiratory safety pharmacology endpoints along with FOB evaluation, organ weights, and macroscopic and microscopic examinations, and TK parameters. […]
measure: NOAEL at 14 days (mg/kg)
Report the value in mg/kg with no unit label.

Qu. For the molecule "CC(C)C[C@@H]1NC(=O)[C@H](Cc2cccc(NC(=O)CCCS(N)(=O)=O)c2)NC(=O)[C@H](CC(=O)O)NC(=O)[C@H]2CCCN2C(=O)[C@H](CCC(=O)O)NC(=O)[C@@H](NC(=O)[C@H](CCC(N)=O)NC(=O)CN2CCN(C(=O)CN3CCN(CC(=O)O)CCN(CC(=O)O)CCN(CC(=O)O)CC3)CC2)CSCc2cccc(c2)CSC[C@@H](C(N)=O)NC(=O)[C@H](CO)NC(=O)[C@H](Cc2c[nH]c3ccccc23)NC(=O)[C@H]([C@@H](C)O)NC1=O" , what NOAEL at 14 days is on record?
Ans. 0.4

* * *

- procedure summary: Dose range finding study by intravenous route with toxicokinetics
- Assay type: in vivo, beagle dogs
- assay context: male, beagle, dog, plasma, iv; Day 9; 0.4 mg/kg i.v.; mean n = 2
measure: half-life (min)
Could you give me the number in min? Just the number is fine.

Qu. Give its half-life value. Item: "CC(C)C[C@@H]1NC(=O)[C@H](Cc2cccc(NC(=O)CCCS(N)(=O)=O)c2)NC(=O)[C@H](CC(=O)O)NC(=O)[C@H]2CCCN2C(=O)[C@H](CCC(=O)O)NC(=O)[C@@H](NC(=O)[C@H](CCC(N)=O)NC(=O)CN2CCN(C(=O)CN3CCN(CC(=O)O)CCN(CC(=O)O)CCN(CC(=O)O)CC3)CC2)CSCc2cccc(c2)CSC[C@@H](C(N)=O)NC(=O)[C@H](CO)NC(=O)[C@H](Cc2c[nH]c3ccccc23)NC(=O)[C@H]([C@@H](C)O)NC1=O"
Ans. 29.4

* * *

- procedure summary: Extended single-dose toxicity study including safety pharmacology endpoints, i.v. bolus (GLP)
- Assay type: in vivo, beagle dogs
- assay context: beagle, dog, plasma, iv, 16 ug/kg; Male; 16 μg/kg single i.v. bolus; mean n = 3; read-out: C5 min
measure: level at 5 min (ng/mL)
// note: answer is a bare numeric in ng/mL

Qu. Returns the measured level at 5 min for the input compound. Input: CC(C)C[C@@H]1NC(=O)[C@H](Cc2cccc(NC(=O)CCCS(N)(=O)=O)c2)NC(=O)[C@H](CC(=O)O)NC(=O)[C@H]2CCCN2C(=O)[C@H](CCC(=O)O)NC(=O)[C@@H](NC(=O)[C@H](CCC(N)=O)NC(=O)CN2CCN(C(=O)CN3CCN(CC(=O)O)CCN(CC(=O)O)CCN(CC(=O)O)CC3)CC2)CSCc2cccc(c2)CSC[C@@H](C(N)=O)NC(=O)[C@H](CO)NC(=O)[C@H](Cc2c[nH]c3ccccc23)NC(=O)[C@H]([C@@H](C)O)NC1=O [DPI-4452]
Ans. 43.5

* * *

- procedure summary: Dose range finding study by intravenous route with toxicokinetics
- Type: in vivo, beagle dogs
- assay context: male, beagle, iv; Day 9; 0.4 mg/kg i.v.; dog plasma; mean n = 2; read-out: C15 min
measure: level at […] (ng/mL)
Form entry: value (ng/mL) — number only.

Qu. Which level at […] value is on record for CC(C)C[C@@H]1NC(=O)[C@H](Cc2cccc(NC(=O)CCCS(N)(=O)=O)c2)NC(=O)[C@H](CC(=O)O)NC(=O)[C@H]2CCCN2C(=O)[C@H](CCC(=O)O)NC(=O)[C@@H](NC(=O)[C@H](CCC(N)=O)NC(=O)CN2CCN(C(=O)CN3CCN(CC(=O)O)CCN(CC(=O)O)CCN(CC(=O)O)CC3)CC2)CSCc2cccc(c2)CSC[C@@H](C(N)=O)NC(=O)[C@H](CO)NC(=O)[C@H](Cc2c[nH]c3ccccc23)NC(=O)[C@H]([C@@H](C)O)NC1=O [DPI-4452] ?
Ans. 880
